Hey, just so you know, these numbers are from patent US5482957A.

Reported IC50 by item:
molecular target: angiotensin II receptor; test: Displacement of 125I- or 3H-angiotensin II from receptor preparations from various organs (liver, lung, adrenal gland, brain etc.); conditions: Table 1; radioligand displacement, 25° C., 90 min, pH 7.4
Experimental Endpoint: IC50 (nM)

> print(dat)
                            molecule.smiles  unit.annotation  result
1  C#CCCOC(=O)NS(=O)(=O)c1ccccc1-c1ccc(Cn2c(CCCC)nc(SC)c2C(=O)O)cc1               nM     1.8
2  CCCCc1nc(SC)c(C(=O)O)n1Cc1ccc(-c2ccccc2S(=O)(=O)NC(=O)NCC2CCCCC2)cc1               nM     2.2
3  C=CCOC(=O)NS(=O)(=O)c1ccccc1-c1ccc(Cn2c(CCCC)nc(SC)c2C(=O)O)cc1               nM       1
4  CCCCc1nc(SC)c(C(=O)OCC)n1Cc1ccc(-c2ccccc2S(=O)(=O)NC(=O)OCCOC(C)C)cc1               nM     4.7
5  C=CCN(CC=C)C(=O)NS(=O)(=O)c1ccccc1-c1ccc(Cn2c(CCCC)nc(SC)c2C(=O)O)cc1               nM     1.1
6  CCCCc1nc(Cl)c(C=O)n1Cc1ccc(-c2ccccc2S(=O)(=O)NC(=O)NCCc2ccccc2)cc1               nM     1.1
7  CCCCc1nc(SC)c(C(=O)O)n1Cc1ccc(-c2ccccc2S(=O)(=O)NC(=O)NCc2ccc(OC)cc2)cc1               nM    0.69

###

biological target: angiotensin II receptor; assay: Displacement of 125I- or 3H-angiotensin II from receptor preparations from various organs (liver, lung, adrenal gland, brain etc.); type: binding; settings: Table 1; radioligand displacement, 25° C., 90 min, pH 7.4
Known IC50 of a selection of compounds
Experimental Endpoint: IC50 (nM)

> print(dat)
                            molecule.smiles  experimental.endpoint  result
1  CCCCc1nc(SC)c(C(=O)OCC)n1Cc1ccc(-c2ccccc2S(=O)(=O)NC(=O)NCCC)cc1                   IC50       3
2  CCCCc1nc(Cl)c(C=O)n1Cc1ccc(-c2ccccc2S(=O)(=O)NC(=O)NCCN2CCCCC2)cc1                   IC50    2030
3  CCCCc1ncc(C(=O)OCC)n1Cc1ccc(-c2ccccc2S(=O)(=O)NC(=O)NCc2ccccc2)cc1                   IC50     1.2
4  CCCCc1nc(OC)c(C=O)n1Cc1ccc(-c2ccccc2S(=O)(=O)NC(=O)OCc2ccccc2)cc1                   IC50     6.5
5  CCCCc1nc(SC)c(C(=O)O)n1Cc1ccc(-c2ccccc2S(=O)(=O)NC(=O)OCC=Cc2ccccc2)cc1                   IC50     3.9
6  CCCCc1nc(SC)c(C(=O)O)n1Cc1ccc(-c2ccccc2S(=O)(=O)NS(=O)(=O)c2cccs2)cc1                   IC50      22
7  CCCCc1nc(OC)c(C=O)n1Cc1ccc(-c2ccccc2S(=O)(=O)NC(=O)OCC)cc1                   IC50     5.9
